Attribution: patent US20080051387A1

TARGET_ENTITY: chimeric human H3 receptor (Homo sapiens)
Construct: rat Galpha-i2 (Gnai2, rat); made in house; host or cells: Sf9 insect cells (baculovirus); P2 membranes
ASSAY_INFO: Chimeric human H3 receptor screening GTP binding assay (inhibition of histamine-stimulated GTP-gamma35S binding, Example 8)
Format: biochemical
TEST_PARAMETERS: 1 h; assay described in Example 8; symbol "!" in column headed Ki; read-out: Ki ("!": percent inhibition of agonist-induced GTP-gammaS binding to H3)
Consider the following compounds and their measured inhibition at 4 µM readings.
RESULT_TYPE: inhibition at 4 µM

                                   compound         result_type  reading
0  O=C(c1ccccc1OC(F)(F)F)N1CCc2cnc(N3CCN(C4CCC4)CC3)nc2CC1 [Compound 412]  inhibition at 4 µM    ≥ 90%
1  CCCCc1ccc(C(=O)N2CCc3cnc(N4CCN(C5CCC5)CC4)nc3CC2)nc1 [Compound 489]  inhibition at 4 µM    ≥ 90%
2  Cc1c(C(=O)N2CCc3cnc(N4CCN(C5CCC5)CC4)nc3CC2)cnn1-c1ccccc1 [Compound 504]  inhibition at 4 µM    ≥ 90%
3  Cc1ccc(C(=O)N2CCc3cnc(N4CCN(C5CCC5)CC4)nc3CC2)cc1N [Compound 532]  inhibition at 4 µM    ≥ 90%

====

TARGET_ENTITY: chimeric human H3 receptor (Homo sapiens)
Construct: rat Galpha-i2 (Gnai2, rat); made in house; host or cells: Sf9 insect cells (baculovirus); P2 membranes
ASSAY_INFO: Chimeric human H3 receptor screening GTP binding assay (inhibition of histamine-stimulated GTP-gamma35S binding, Example 8)
Assay type: biochemical
TEST_PARAMETERS: 1 h; assay of Example 8; symbol "!" in column headed Ki; read-out: percent inhibition of agonist-induced GTP-gammaS binding to H3
Experimental: This Example illustrates a representative screening assay for evaluating inhibition of histamine-stimulated GTP-gamma^35S binding. Such GTP binding activity can be used to identify H3 antagonists and inverse agonists. A compound analyzed in this assay is referred to herein as a “test compound,” and the initial identification of antagonists and inverse agonists is performed using a test compound concentration of 4 μM. […]
Consider the following compounds and their measured inhibition at 4 µM readings.
RESULT_TYPE: inhibition at 4 µM

In [3]: df
Out[3]:
                                   compound  reading
0  c1cc(N2CCOCC2)ncc1CN1CCc2cnc(N3CCN(C4CCC4)CC3)nc2CC1 [Compound 240]    ≥ 90%
1  O=C(C1CCCCC1)N1CCc2cnc(N3CCN(C4CCC4)CC3)nc2CC1 [Compound 218]    ≥ 90%
2  O=C(Cc1ccc(Oc2ccccc2)cc1)N1CCc2cnc(N3CCN(C4CCC4)CC3)nc2CC1 [Compound 283]    ≥ 90%
3  COc1cc(Br)c(CC(=O)N2CCc3cnc(N4CCN(C5CCC5)CC4)nc3CC2)cc1OC [Compound 299]    ≥ 90%
4  O=C(c1ccc(F)cc1)N1CCc2cnc(N3CCN(C4CCC4)CC3)nc2CC1 [Compound 194]    ≥ 90%
5  O=C(C1c2ccccc2Oc2ccccc21)N1CCc2cnc(N3CCN(C4CCC4)CC3)nc2CC1 [Compound 358]    ≥ 90%
6  O=C(c1cccc(F)c1)N1CCc2cnc(N3CCN(C4CCC4)CC3)nc2CC1 [Compound 193]    ≥ 90%
7  Cc1ccc(OCC(=O)N2CCc3cnc(N4CCN(C5CCC5)CC4)nc3CC2)c(C)c1 [Compound 333]    ≥ 90%

====

TARGET_ENTITY: chimeric human H3 receptor (Homo sapiens, UniProt Q9Y5N1)
Construct: rat Galpha-i2 (Gnai2, rat); made in house; host or cells: Sf9 insect cells (baculovirus); P2 membranes
Sequence (Q9Y5N1 with tags, fused parts or gaps): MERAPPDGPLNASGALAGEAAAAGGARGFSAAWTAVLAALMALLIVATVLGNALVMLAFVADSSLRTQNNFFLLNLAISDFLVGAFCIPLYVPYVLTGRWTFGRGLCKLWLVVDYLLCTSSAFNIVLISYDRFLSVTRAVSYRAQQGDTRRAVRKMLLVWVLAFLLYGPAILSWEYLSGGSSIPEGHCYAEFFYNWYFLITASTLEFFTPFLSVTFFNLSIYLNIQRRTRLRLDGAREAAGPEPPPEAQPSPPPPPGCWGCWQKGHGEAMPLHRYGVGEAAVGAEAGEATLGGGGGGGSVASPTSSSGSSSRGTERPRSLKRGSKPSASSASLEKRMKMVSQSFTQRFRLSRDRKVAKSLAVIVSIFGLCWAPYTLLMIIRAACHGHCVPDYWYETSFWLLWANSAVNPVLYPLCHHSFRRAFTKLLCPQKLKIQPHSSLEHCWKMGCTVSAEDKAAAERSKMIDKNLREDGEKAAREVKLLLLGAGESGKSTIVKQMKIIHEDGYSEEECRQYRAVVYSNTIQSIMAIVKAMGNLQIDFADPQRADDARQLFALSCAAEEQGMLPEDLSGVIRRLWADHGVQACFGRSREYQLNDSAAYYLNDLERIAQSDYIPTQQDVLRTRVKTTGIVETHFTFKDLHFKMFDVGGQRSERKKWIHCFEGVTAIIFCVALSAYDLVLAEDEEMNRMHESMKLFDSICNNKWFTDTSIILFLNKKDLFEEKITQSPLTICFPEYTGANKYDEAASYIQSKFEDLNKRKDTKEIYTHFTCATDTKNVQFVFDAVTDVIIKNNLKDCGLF
ASSAY_INFO: Chimeric human H3 receptor screening GTP binding assay (inhibition of histamine-stimulated GTP-gamma35S binding, Example 8)
Assay type: biochemical
TEST_PARAMETERS: 1 h; assay described in Example 8; symbol "!" in column headed Ki; read-out: Ki ("!": percent inhibition of agonist-induced GTP-gammaS binding to H3)
Consider the following compounds and their measured inhibition at 4 µM readings.
RESULT_TYPE: inhibition at 4 µM

>>> df
                                    compound  reading
 0  COc1ccc(OC)c(/C=C/C(=O)N2CCc3cnc(N4CCN(C5CCC5)CC4)nc3CC2)c1 [Compound 574]    ≥ 90%
 1  O=C(Cc1ccc(F)cc1)N1CCc2cnc(N3CCN(C4CCC4)CC3)nc2CC1 [Compound 516]    ≥ 90%
 2  Cc1nc(C)c(C(=O)N2CCc3cnc(N4CCN(C5CCC5)CC4)nc3CC2)s1 [Compound 525]    ≥ 90%
 3  CCCOc1ncccc1C(=O)N1CCc2cnc(N3CCN(C4CCC4)CC3)nc2CC1 [Compound 545]    ≥ 90%
 4  COc1ccc(/C=C/C(=O)N2CCc3cnc(N4CCN(C5CCC5)CC4)nc3CC2)c(OC)c1 [Compound 570]    ≥ 90%
 5  Cc1ccc(C(=O)N2CCc3cnc(N4CCN(C5CCC5)CC4)nc3CC2)c(C)c1 [Compound 407]    ≥ 90%
 6  COc1cc(Br)c(C(=O)N2CCc3cnc(N4CCN(C5CCC5)CC4)nc3CC2)cc1OC [Compound 429]    ≥ 90%
 7  O=C(c1cccc(C(F)(F)F)c1)N1CCc2cnc(N3CCN(C4CCC4)CC3)nc2CC1 [Compound 397]    ≥ 90%
 8  CNc1ccc(C(=O)N2CCc3cnc(N4CCN(C5CCC5)CC4)nc3CC2)cc1 [Compound 535]    ≥ 90%
 9  O=C(c1cncc(Br)c1)N1CCc2cnc(N3CCN(C4CCC4)CC3)nc2CC1 [Compound 481]    ≥ 90%
10  Cc1cccc(CC(=O)N2CCc3cnc(N4CCN(C5CCC5)CC4)nc3CC2)c1 [Compound 514]    ≥ 90%
11  COc1cccc(/C=C/C(=O)N2CCc3cnc(N4CCN(C5CCC5)CC4)nc3CC2)c1OC [Compound 573]    ≥ 90%
12  CCCc1ccc(C(=O)N2CCc3cnc(N4CCN(C5CCC5)CC4)nc3CC2)s1 [Compound 452]    ≥ 90%
13  O=C(Cc1ccccc1F)N1CCc2cnc(N3CCN(C4CCC4)CC3)nc2CC1 [Compound 517]    ≥ 90%
14  O=C(c1cccnc1Oc1ccccc1)N1CCc2cnc(N3CCN(C4CCC4)CC3)nc2CC1 [Compound 495]    ≥ 90%
15  COc1ncccc1C(=O)N1CCc2cnc(N3CCN(C4CCC4)CC3)nc2CC1 [Compound 498]    ≥ 90%
16  COc1cc(OC)c(OC)cc1/C=C/C(=O)N1CCc2cnc(N3CCN(C4CCC4)CC3)nc2CC1 [Compound 575]    ≥ 90%

====

TARGET_ENTITY: chimeric human H3 receptor (Homo sapiens)
Construct: rat Galpha-i2 (Gnai2, rat); made in house; host or cells: Sf9 insect cells (baculovirus); P2 membranes
ASSAY_INFO: Chimeric human H3 receptor screening GTP binding assay (inhibition of histamine-stimulated GTP-gamma35S binding, Example 8)
Assay type: biochemical
TEST_PARAMETERS: 1 h; assay described in Example 8; symbol "!" in column headed Ki; read-out: Ki ("!": percent inhibition of agonist-induced GTP-gammaS binding to H3)
Consider the following compounds and their measured inhibition at 4 µM readings.
RESULT_TYPE: inhibition at 4 µM

>>> print(df.to_string())
                                   compound         result_type  reading
0  Cc1oc(-c2ccccc2)cc1C(=O)N1CCc2cnc(N3CCN(C4CCC4)CC3)nc2CC1 [Compound 469]  inhibition at 4 µM    ≥ 90%
1  O=C(/C=C/c1ccc(F)cc1)N1CCc2cnc(N3CCN(C4CCC4)CC3)nc2CC1 [Compound 548]  inhibition at 4 µM    ≥ 90%
2  Nc1ccc(Cl)cc1C(=O)N1CCc2cnc(N3CCN(C4CCC4)CC3)nc2CC1 [Compound 536]  inhibition at 4 µM    ≥ 90%
3  COc1cc(C(=O)N2CCc3cnc(N4CCN(C5CCC5)CC4)nc3CC2)cc(OC)c1OC [Compound 384]  inhibition at 4 µM    ≥ 90%
4  O=C(/C=C/c1ccc2c(c1)OCO2)N1CCc2cnc(N3CCN(C4CCC4)CC3)nc2CC1 [Compound 567]  inhibition at 4 µM    ≥ 90%
5  CC(C)Oc1ncccc1C(=O)N1CCc2cnc(N3CCN(C4CCC4)CC3)nc2CC1 [Compound 546]  inhibition at 4 µM    ≥ 90%
6  CCCCOc1ccc(C(=O)N2CCc3cnc(N4CCN(C5CCC5)CC4)nc3CC2)cc1 [Compound 382]  inhibition at 4 µM    ≥ 90%
7  Cc1cc(C)c(C(=O)N2CCc3cnc(N4CCN(C5CCC5)CC4)nc3CC2)c(C)c1 [Compound 405]  inhibition at 4 µM    ≥ 90%
